experiment: Cytotoxicity against HEK293 cells assessed as reduction in cell viability after 48 hrs by alamar blue assay; type: toxicity, cell-based; settings: human
MEASURED METRIC: EC50 at 48 h

Below, each entry is followed by its recorded EC50 at 48 h result.
IN: Data request, read-out EC50 at 48 h, for N=C(N)c1ccc(OCCCCCOc2ccc(C(=N)N)cc2)cc1 [PENTAMIDINE]
OUT: > 100 µM

IN: Same for O=S(=O)(Nc1ccc(-c2nc3cc(NS(=O)(=O)c4cccc(Cl)c4)ccc3o2)cc1)c1cccc(Cl)c1
OUT: 21 µM

IN: Same for O=S(=O)(Cc1ccccc1)Nc1ccc(-c2nc3cc(NS(=O)(=O)Cc4ccccc4)ccc3o2)cc1
OUT: 19 µM

New cases:
IN: Data request, read-out EC50 at 48 h, for CCCS(=O)(=O)Nc1ccc(-c2nc3cc(NS(=O)(=O)CCC)ccc3o2)cc1
OUT: > 100 µM

IN: Same for O=S(=O)(Nc1ccc(-c2nc3cc(NS(=O)(=O)c4cccc(C(F)(F)F)c4)ccc3o2)cc1)c1cccc(C(F)(F)F)c1
OUT: 15 µM

IN: Same for Nc1ccc(S(=O)(=O)Nc2ccc(-c3nc4cc(NS(=O)(=O)c5ccc(N)cc5)ccc4o3)cc2)cc1
OUT: 59 µM

IN: Same for NCCCC(N)(C(=O)O)C(F)F (stereo not drawn) [EFLORNITHINE]
OUT: > 100 µM

IN: Same for O=S(=O)(Nc1ccc(-c2nc3cc(NS(=O)(=O)c4ccc(O)cc4)ccc3o2)cc1)c1ccc(O)cc1
OUT: 38 µM

IN: Same for Cc1ccc(C(=O)Nc2ccc(S(=O)(=O)O)c3cc(S(=O)(=O)O)cc(S(=O)(=O)O)c23)cc1NC(=O)c1cccc(NC(=O)Nc2cccc(C(=O)Nc3cc(C(=O)Nc4ccc(S(=O)(=O)O)c5cc(S(=O)(=O)O)cc(S(=O)(=O)O)c45)ccc3C)c2)c1 [SURAMIN]
OUT: > 100 µM

IN: Same for O=S(=O)(Nc1ccc(-c2nc3cc(NS(=O)(=O)c4cccc5ccccc45)ccc3o2)cc1)c1cccc2ccccc12
OUT: > 100 µM

###

Let's look at some molecules and their measured pIC50.
target: HSP60/HSP10 (Homo sapiens, UniProt P10809); assay: Inhibition of human mitochondrial HSP60/HSP10 expressed in Escherichia coli DH5alpha/BL21 (DE3) assessed as inhibition of denatured MDH refolding preincubated for 10 mins followed by ATP addition measured after 40 to 60 mins by fluorescence based assay
Sequence (P10809 whole entry): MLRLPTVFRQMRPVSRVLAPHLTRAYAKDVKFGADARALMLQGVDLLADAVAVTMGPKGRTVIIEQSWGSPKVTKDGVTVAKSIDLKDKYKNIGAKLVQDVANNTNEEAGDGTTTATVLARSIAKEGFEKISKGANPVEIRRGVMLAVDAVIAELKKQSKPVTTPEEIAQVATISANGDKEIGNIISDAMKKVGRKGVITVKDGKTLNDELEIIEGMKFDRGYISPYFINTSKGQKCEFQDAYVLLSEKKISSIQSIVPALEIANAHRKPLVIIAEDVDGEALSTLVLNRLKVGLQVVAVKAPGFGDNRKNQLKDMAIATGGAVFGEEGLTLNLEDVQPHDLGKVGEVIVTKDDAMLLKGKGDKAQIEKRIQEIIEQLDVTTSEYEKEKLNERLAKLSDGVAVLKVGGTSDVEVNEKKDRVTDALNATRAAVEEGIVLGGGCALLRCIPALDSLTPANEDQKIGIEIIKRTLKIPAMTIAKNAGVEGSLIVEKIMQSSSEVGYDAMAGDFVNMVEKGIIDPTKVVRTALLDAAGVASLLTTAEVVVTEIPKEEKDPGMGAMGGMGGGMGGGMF
Sequence (P61604 whole entry, further chain): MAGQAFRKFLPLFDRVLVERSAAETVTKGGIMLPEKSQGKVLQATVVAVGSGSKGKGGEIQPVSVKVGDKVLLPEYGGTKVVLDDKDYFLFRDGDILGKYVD
pIC50: −log10 of the molar value.

Below, each entry is followed by its recorded pIC50 result.
IN: Data request, read-out pIC50, for COc1ccc(S(=O)(=O)Nc2ccc(-c3nc4cc(NS(=O)(=O)c5ccc(OC)cc5)ccc4o3)cc2)cc1
OUT: < 4.00

IN: Same for COc1cccc(S(=O)(=O)Nc2ccc(-c3nc4cc(NS(=O)(=O)c5cccc(OC)c5)ccc4o3)cc2)c1
OUT: < 4.00

IN: Same for O=S(=O)(Nc1ccc(-c2nc3cc(NS(=O)(=O)c4ccccc4Cl)ccc3o2)cc1)c1ccccc1Cl
OUT: < 4.00

IN: Same for O=S(=O)(Nc1ccc(-c2nc3cc(NS(=O)(=O)c4ccccc4F)ccc3o2)cc1)c1ccccc1F
OUT: 4.11

IN: Same for O=S(=O)(Nc1ccc(-c2nc3cc(NS(=O)(=O)c4ccc5nsnc5c4)ccc3o2)cc1)c1ccc2nsnc2c1
OUT: 4.21

IN: Same for O=S(=O)(Nc1ccc(-c2nc3cc(NS(=O)(=O)c4cccc(F)c4)ccc3o2)cc1)c1cccc(F)c1
OUT: 4.17

New cases:
IN: Data request, read-out pIC50, for CC1CS(=O)(=O)CCN1/N=C/c1ccc([N+](=O)[O-])o1 (stereo not drawn) [NIFURTIMOX]
OUT: < 4.00

IN: Same for N=C(N)c1ccc(OCCCCCOc2ccc(C(=N)N)cc2)cc1 [PENTAMIDINE]
OUT: < 4.00

###

assay: Cytotoxicity against human THLE3 cells assessed as reduction in cell viability after 48 hrs by alamar blue assay; format: toxicity, cell-based
In plain terms, low EC50 at 48 h, meaning strictly below 40 µM, gives Yes, and everything else gives No.

See these solved cases before continuing.
IN: Please state whether EC50 at 48 h is below 40 µM for O=S(=O)(Nc1ccc(-c2nc3cc(NS(=O)(=O)c4ccccc4C(F)(F)F)ccc3o2)cc1)c1ccccc1C(F)(F)F
OUT: No

IN: Same for COc1ccccc1S(=O)(=O)Nc1ccc(-c2nc3cc(NS(=O)(=O)c4ccccc4OC)ccc3o2)cc1
OUT: No

IN: Same for COC(=O)c1ccc(S(=O)(=O)Nc2ccc(-c3nc4cc(NS(=O)(=O)c5ccc(C(=O)OC)cc5)ccc4o3)cc2)cc1
OUT: No

New cases:
IN: Please state whether EC50 at 48 h is below 40 µM for O=S(=O)(Nc1ccc(-c2nc3cc(NS(=O)(=O)c4cccc(F)c4)ccc3o2)cc1)c1cccc(F)c1
OUT: Yes

IN: Same for O=[N+]([O-])c1cccc(S(=O)(=O)Nc2ccc(-c3nc4cc(NS(=O)(=O)c5cccc([N+](=O)[O-])c5)ccc4o3)cc2)c1
OUT: Yes

IN: Same for O=S(=O)(Nc1ccc(-c2nc3cc(NS(=O)(=O)c4ccccc4Cl)ccc3o2)cc1)c1ccccc1Cl
OUT: Yes

IN: Same for O=S(=O)(Nc1ccc(-c2nc3cc(NS(=O)(=O)c4cccc5nsnc45)ccc3o2)cc1)c1cccc2nsnc12
OUT: No

IN: Same for O=C(O)c1ccc(S(=O)(=O)Nc2ccc(-c3nc4cc(NS(=O)(=O)c5ccc(C(=O)O)cc5)ccc4o3)cc2)cc1
OUT: No

###

Let's look at some molecules and their measured EC50 at 48 h.
test: Cytotoxicity against human THLE3 cells assessed as reduction in cell viability after 48 hrs by alamar blue assay; assay type: toxicity, cell-based
Numbers only here, please. The scale is µM.

IN: Data request, read-out EC50 at 48 h, for O=S(=O)(Nc1ccc(-c2nc3cc(NS(=O)(=O)c4ccccc4O)ccc3o2)cc1)c1ccccc1O
OUT: 19

IN: Same for O=S(=O)(Nc1ccc(-c2nc3cc(NS(=O)(=O)c4ccc(Br)cc4)ccc3o2)cc1)c1ccc(Br)cc1
OUT: 16

IN: Same for O=S(=O)(Nc1ccc(-c2nc3cc(NS(=O)(=O)c4cccc5nonc45)ccc3o2)cc1)c1cccc2nonc12
OUT: 58

New cases:
IN: Data request, read-out EC50 at 48 h, for O=S(=O)(Nc1ccc(-c2nc3cc(NS(=O)(=O)c4ccccc4Br)ccc3o2)cc1)c1ccccc1Br
OUT: 37

IN: Same for O=S(=O)(Nc1ccc(-c2nc3cc(NS(=O)(=O)c4cccc(Br)c4)ccc3o2)cc1)c1cccc(Br)c1
OUT: 21

IN: Same for N#Cc1ccc(S(=O)(=O)Nc2ccc(-c3nc4cc(NS(=O)(=O)c5ccc(C#N)cc5)ccc4o3)cc2)cc1
OUT: 79

IN: Same for N=C(N)c1ccc(OCCCCCOc2ccc(C(=N)N)cc2)cc1 [PENTAMIDINE]
OUT: 19

IN: Same for O=[N+]([O-])c1ccccc1S(=O)(=O)Nc1ccc(-c2nc3cc(NS(=O)(=O)c4ccccc4[N+](=O)[O-])ccc3o2)cc1
OUT: 93

IN: Same for Nc1cccc(S(=O)(=O)Nc2ccc(-c3nc4cc(NS(=O)(=O)c5cccc(N)c5)ccc4o3)cc2)c1
OUT: 30

###

biological target: HSP60/HSP10 (Homo sapiens); experiment: Inhibition of human mitochondrial HSP60/HSP10 expressed in Escherichia coli DH5alpha/BL21 (DE3) assessed as inhibition of denatured MDH refolding preincubated for 10 mins followed by ATP addition measured after 40 to 60 mins by fluorescence based assay
MEASURED METRIC: IC50

IN: Data request, read-out IC50, for Cc1ccccc1S(=O)(=O)Nc1ccc(-c2nc3cc(NS(=O)(=O)c4ccccc4C)ccc3o2)cc1
OUT: > 100 µM

IN: Same for O=S(=O)(Cc1ccccc1)Nc1ccc(-c2nc3cc(NS(=O)(=O)Cc4ccccc4)ccc3o2)cc1
OUT: > 100 µM

IN: Same for O=S(=O)(Nc1ccc(-c2nc3cc(NS(=O)(=O)c4ccccc4C(F)(F)F)ccc3o2)cc1)c1ccccc1C(F)(F)F
OUT: > 100 µM

Okay, next one:
IN: Data request, read-out IC50, for O=S(=O)(Nc1ccc(-c2nc3cc(NS(=O)(=O)c4ccc(Br)cc4)ccc3o2)cc1)c1ccc(Br)cc1
OUT: > 100 µM

###

Let's look at some compounds and their measured IC50.
target: E. coli GroEL/ES (Escherichia coli); experiment: Inhibition of Escherichia coli GroEL/GroES expressed in Escherichia coli DH5alpha/BL21 (DE3) assessed as inhibition of denatured MDH refolding preincubated for 10 mins followed by ATP addition measured after 20 to 40 mins by fluorescence based assay
Sequence (P0A6F5 whole entry, looked up): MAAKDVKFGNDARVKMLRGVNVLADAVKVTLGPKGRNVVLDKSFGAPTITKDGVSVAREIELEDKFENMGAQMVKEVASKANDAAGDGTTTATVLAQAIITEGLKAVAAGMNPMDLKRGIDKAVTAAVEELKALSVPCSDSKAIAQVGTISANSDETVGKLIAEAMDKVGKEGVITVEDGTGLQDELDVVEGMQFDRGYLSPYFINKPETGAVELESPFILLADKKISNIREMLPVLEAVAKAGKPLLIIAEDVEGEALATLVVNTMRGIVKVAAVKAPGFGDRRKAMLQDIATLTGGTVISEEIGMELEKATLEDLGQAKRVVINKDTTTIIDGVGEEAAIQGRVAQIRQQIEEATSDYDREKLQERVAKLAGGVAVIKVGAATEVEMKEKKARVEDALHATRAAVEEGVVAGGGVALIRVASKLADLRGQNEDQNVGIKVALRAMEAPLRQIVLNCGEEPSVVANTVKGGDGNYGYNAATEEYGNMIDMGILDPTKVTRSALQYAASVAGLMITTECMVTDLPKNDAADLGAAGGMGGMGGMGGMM
Numbers only here, please. The scale is µM.

Below, each entry is followed by its recorded IC50 result.
IN: Data request, read-out IC50, for O=S(=O)(Nc1ccc(-c2nc3cc(NS(=O)(=O)c4cccc5ccccc45)ccc3o2)cc1)c1cccc2ccccc12
OUT: 23

IN: Same for O=S(=O)(Nc1ccc(-c2nc3cc(NS(=O)(=O)c4ccccc4C(F)(F)F)ccc3o2)cc1)c1ccccc1C(F)(F)F
OUT: 25

New cases:
IN: Data request, read-out IC50, for O=S(=O)(Nc1ccc(-c2nc3cc(NS(=O)(=O)c4cccs4)ccc3o2)cc1)c1cccs1
OUT: 4.6

IN: Same for O=[N+]([O-])c1ccccc1S(=O)(=O)Nc1ccc(-c2nc3cc(NS(=O)(=O)c4ccccc4[N+](=O)[O-])ccc3o2)cc1
OUT: 3.6
